Target: feline FcRn (FCN-F82W3, Acrobiosystems) (feline)
Assay: SPR Carterra, IgG coupled, pH 6.0
# Kd listing for each entry below
Numbers only here, please. The scale is nM.

{"columns": ["binder", "Kd / nM"],
 "data": [
  ["anti-NGF feline IgG1a, Fc variant Q311L (antibody, part only; not given: anti-NGF variable domains, light chain, not shown: another chain or arm of the molecule; small tags and cut ends) Fc: PPEMLGGPSIFIFPPKPKDTLSISRTPEVTCLVVDLGPDDSDVQITWFVDNTQVYTAKTSPREEQFNSTYRVVSVLPILHLDWLKGKEFKCKVNSKSLPSPIERTISKAKGQPHEPQVYVLPPAQEELSRNKVSVTCLIKSFHPPDIAVEWEITGQPEPENNYRTTPPQLDSDGTYFVYSKLSVDRSHWQRGNTYTCSVSHEALHSHHTQKSLTQSPGK", 88.2]
]}

The record that follows has no Kd shown yet.
Query: Please give the measured Kd for this binder: anti-NGF feline IgG1a, Fc variant S428L, Q311V (antibody, part only; not given: Anti-NGF variable domains, not shown: another chain or arm of the molecule; small tags and cut ends) Fc: PPEMLGGPSIFIFPPKPKDTLSISRTPEVTCLVVDLGPDDSDVQITWFVDNTQVYTAKTSPREEQFNSTYRVVSVLPILHVDWLKGKEFKCKVNSKSLPSPIERTISKAKGQPHEPQVYVLPPAQEELSRNKVSVTCLIKSFHPPDIAVEWEITGQPEPENNYRTTPPQLDSDGTYFVYSKLSVDRSHWQRGNTYTCSVLHEALHSHHTQKSLTQSPGK
Response: 11.7
